Reference source for all entries: the supplement of paper PMC9492666

- Tested on: HCC1937
- assayNotes: relative cell viability, compound + RSL3, vs DMSO (fraction of DMSO control); higher = less growth inhibition
- statedConditions: 72 h
Where a name gives a salt, the structure may show the parent alone.
reportedProperty: relative cell viability

molecule="CN(C)CCOC(=O)COc1ccc(Cl)cc1 [Meclofenoxate hydrochloride] + COC(=O)c1ccc([C@H]2c3[nH]c4ccccc4c3C[C@H](C(=O)OC)N2C(=O)CCl)cc1" reportedproperty="relative cell viability" assayresult=0.612
molecule="COc1ccc2[nH]cc(CCNC(C)=O)c2c1 [Melatonine] + COC(=O)c1ccc([C@H]2c3[nH]c4ccccc4c3C[C@H](C(=O)OC)N2C(=O)CCl)cc1" reportedproperty="relative cell viability" assayresult=0.613
molecule="N#Cc1c(O)c2c(-c3ccc(-c4ccccc4O)cc3)csc2[nH]c1=O + COC(=O)c1ccc([C@H]2c3[nH]c4ccccc4c3C[C@H](C(=O)OC)N2C(=O)CCl)cc1" reportedproperty="relative cell viability" assayresult=0.412

---

Recorded measurements of relative cell viability, one per entry
- System: MDA-MB-231
- assayNotes: relative cell viability, compound + RSL3, vs DMSO (fraction of DMSO control); higher = less growth inhibition
- statedConditions: 72 h
reportedProperty: relative cell viability

molecule="CN(CCOc1ccc(CC2SC(=O)NC2=O)cc1)c1ccccn1 (stereo not drawn) [Rosiglitazone] + COC(=O)c1ccc([C@H]2c3[nH]c4ccccc4c3C[C@H](C(=O)OC)N2C(=O)CCl)cc1 [RSL3]" systemtested=MDA-MB-231 reportedproperty="relative cell viability" assayresult=0.646
molecule="Cc1c(C)c2c(c(C)c1O)CCC(C)(COc1ccc(CC3SC(=O)NC3=O)cc1)O2 (stereo not drawn) [Troglitazone] + COC(=O)c1ccc([C@H]2c3[nH]c4ccccc4c3C[C@H](C(=O)OC)N2C(=O)CCl)cc1" systemtested=MDA-MB-231 reportedproperty="relative cell viability" assayresult=0.686
molecule="O=C(Nc1ccccc1)c1cc([N+](=O)[O-])ccc1Cl + COC(=O)c1ccc([C@H]2c3[nH]c4ccccc4c3C[C@H](C(=O)OC)N2C(=O)CCl)cc1" systemtested=MDA-MB-231 reportedproperty="relative cell viability" assayresult=0.705

---

- System: MDA-MB-231
- assayNotes: relative cell viability, compound alone, vs DMSO (fraction of DMSO control); higher = less growth inhibition
- statedConditions: 72 h
Structures can show the parent of a compound that is named as a salt.
relative cell viability strictly less than 0.9 = true. Otherwise false.

compound="Cc1cc(=O)oc2c(O)c(O)ccc12 [7,8-Dihydroxy-4-methylcoumarin]" assignedlabel=false
compound=Cc1cc(C)c(S(=O)(=O)N(CCc2cccc(Br)c2)Cc2ccc(-c3cccc(S(C)(=O)=O)c3)cc2)c(C)c1 assignedlabel=true
compound=Cc1cc(SCc2sc(-c3ccc(C(F)(F)F)cc3)nc2C)ccc1OCC(=O)O assignedlabel=true
compound="COc1ccc([C@@H]2OC[C@H]3[C@@H]2CO[C@@H]3c2ccc(O[C@@H]3O[C@H](CO)[C@@H](O)[C@H](O)[C@H]3O)c(OC)c2)cc1OC [Forsythin]" assignedlabel=false
compound="CC1(N)CCN(c2cnc(-c3cccc(Cl)c3Cl)c(N)n2)CC1 [SHP099 hydrochloride]" assignedlabel=false
compound=O=C(Nc1ccc(C(O)(C(F)(F)F)C(F)(F)F)cc1)c1ccccc1Cl assignedlabel=false
compound="CC[C@H](C)C(=O)O[C@H]1C[C@@H](C)C=C2C=C[C@H](C)[C@H](CC[C@@H]3C[C@@H](O)CC(=O)O3)[C@H]21 [Lovastatin]" assignedlabel=true
compound="Cn1nc(C(=O)N(Cc2ccccc2)Cc2ccc(C(=O)O)cc2)c2c1-c1cc(Cl)ccc1OC2 [Nidufexor]" assignedlabel=false
compound=COC(=O)c1cc(Cl)c(O)c(S(=O)(=O)Nc2cc(-c3ccccc3)c(F)cc2F)c1 assignedlabel=true
compound="CC(C)c1c(C(=O)Nc2ccccc2)c(-c2ccccc2)c(-c2ccc(F)cc2)n1CC[C@@H](O)C[C@@H](O)CC(=O)O [Atorvastatin Calcium]" assignedlabel=true
compound=C[C@@H]1OCC2(CCN(c3cnc(Sc4ccnc(N)c4Cl)c(N)n3)CC2)[C@@H]1N assignedlabel=false
compound="COc1ccc2c(c1)c(CC(=O)O)c(C)n2C(=O)c1ccc(Cl)cc1 [Indometacin]" assignedlabel=true
compound=O=S(=O)(O)c1ccc2cc(N=Nc3cc(S(=O)(=O)O)c4cccnc4c3O)ccc2c1 assignedlabel=true
compound=COc1ccc(-c2c[nH]c3nccc(-c4ccsc4)c23)c(OC)c1 assignedlabel=false
compound=COc1cc(N2CCN(C)CC2)ccc1Nc1ncc2c(n1)N(C)c1ccccc1C(=O)N2 assignedlabel=true
compound=CCc1ccc(N(CC(C)C)S(=O)(=O)c2ccc(OCC3CCOCC3)c(CO)c2)cc1 assignedlabel=false
compound="COP(=O)(OC)OC(c1ccc(Cl)cc1)P(=O)(OC)OC (stereo not given) [Mifobate]" assignedlabel=false
compound="CC(C)(Oc1ccc(CCNC(=O)c2ccc(Cl)cc2)cc1)C(=O)O [Bezafibrate]" assignedlabel=true
compound="CCc1ccc(CCOc2ccc(CC3SC(=O)NC3=O)cc2)nc1 (stereo not given) [Pioglitazone]" assignedlabel=true
